B1: library; numbered along this chain (parent)
chain: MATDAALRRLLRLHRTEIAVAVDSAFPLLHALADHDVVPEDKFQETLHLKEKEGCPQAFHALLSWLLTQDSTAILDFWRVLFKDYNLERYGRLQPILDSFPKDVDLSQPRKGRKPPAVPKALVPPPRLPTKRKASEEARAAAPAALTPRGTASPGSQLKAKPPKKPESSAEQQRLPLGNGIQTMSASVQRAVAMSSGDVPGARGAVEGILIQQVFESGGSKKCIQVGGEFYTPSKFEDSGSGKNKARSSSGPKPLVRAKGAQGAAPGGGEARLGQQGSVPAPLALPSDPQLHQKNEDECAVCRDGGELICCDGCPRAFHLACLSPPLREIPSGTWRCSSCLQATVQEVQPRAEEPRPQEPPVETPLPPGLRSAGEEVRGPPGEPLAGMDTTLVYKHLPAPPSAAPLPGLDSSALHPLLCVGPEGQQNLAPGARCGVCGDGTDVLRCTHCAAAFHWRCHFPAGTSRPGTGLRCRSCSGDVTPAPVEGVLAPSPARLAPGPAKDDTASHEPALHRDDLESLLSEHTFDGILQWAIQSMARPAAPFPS

Variants of: B1
ASSAY DETAILS: AIRE transcriptional activation functional score (insulin promoter-GFP; nonsense median 0, synonymous median 1) (normalised score); higher = higher AIRE activity (more reporter activation)
CONDITION CONTEXT: with insulin promoter-GFP reporter in HEK293
MEASURED PROPERTY: AIRE transcriptional activation functional score

- VARIANT DESCRIPTOR: "C446I"
  QUANTITATIVE READOUT: 0.167
- VARIANT DESCRIPTOR: "I211L"
  QUANTITATIVE READOUT: 0.428
- VARIANT DESCRIPTOR: "N427L"
  QUANTITATIVE READOUT: 1.51
- VARIANT DESCRIPTOR: "P481E"
  QUANTITATIVE READOUT: 0.44
- VARIANT DESCRIPTOR: "R465D"
  QUANTITATIVE READOUT: 0.53
- VARIANT DESCRIPTOR: "D514I"
  QUANTITATIVE READOUT: -0.186
- VARIANT DESCRIPTOR: "D198M"
  QUANTITATIVE READOUT: 1.02
- VARIANT DESCRIPTOR: "V362M"
  QUANTITATIVE READOUT: -0.739
- VARIANT DESCRIPTOR: "L49T"
  QUANTITATIVE READOUT: -0.364
- VARIANT DESCRIPTOR: "P539M"
  QUANTITATIVE READOUT: 0.297
- VARIANT DESCRIPTOR: "G421F"
  QUANTITATIVE READOUT: 1.33
- VARIANT DESCRIPTOR: "I211R"
  QUANTITATIVE READOUT: 0.0828
- VARIANT DESCRIPTOR: "A461Q"
  QUANTITATIVE READOUT: 0.964
- VARIANT DESCRIPTOR: "A404Y"
  QUANTITATIVE READOUT: 1.3
- VARIANT DESCRIPTOR: "F525Y"
  QUANTITATIVE READOUT: 0.369
- VARIANT DESCRIPTOR: "I330D"
  QUANTITATIVE READOUT: 0.391
- VARIANT DESCRIPTOR: "L327R"
  QUANTITATIVE READOUT: 1.05
- VARIANT DESCRIPTOR: "C311G"
  QUANTITATIVE READOUT: 0.921
- VARIANT DESCRIPTOR: "S64C"
  QUANTITATIVE READOUT: -0.513
- VARIANT DESCRIPTOR: "P401E"
  QUANTITATIVE READOUT: 1.49
- VARIANT DESCRIPTOR: "C299N"
  QUANTITATIVE READOUT: 0.262
- VARIANT DESCRIPTOR: "Q349G"
  QUANTITATIVE READOUT: 1.14
- VARIANT DESCRIPTOR: "S196D"
  QUANTITATIVE READOUT: 0.944
- VARIANT DESCRIPTOR: "A343V"
  QUANTITATIVE READOUT: 1.03
- VARIANT DESCRIPTOR: "S339Q"
  QUANTITATIVE READOUT: 1.16
- VARIANT DESCRIPTOR: "S196A"
  QUANTITATIVE READOUT: 0.621
- VARIANT DESCRIPTOR: "L273K"
  QUANTITATIVE READOUT: 0.434
- VARIANT DESCRIPTOR: "S168H"
  QUANTITATIVE READOUT: 1.23
- VARIANT DESCRIPTOR: "S339K"
  QUANTITATIVE READOUT: 0.757
- VARIANT DESCRIPTOR: "P509W"
  QUANTITATIVE READOUT: 0.591
- VARIANT DESCRIPTOR: "E216N"
  QUANTITATIVE READOUT: 1.75
- VARIANT DESCRIPTOR: "F100W"
  QUANTITATIVE READOUT: 1.58
- VARIANT DESCRIPTOR: "T463P"
  QUANTITATIVE READOUT: 1.14
- VARIANT DESCRIPTOR: "S250P"
  QUANTITATIVE READOUT: -0.109
- VARIANT DESCRIPTOR: "C419V"
  QUANTITATIVE READOUT: 1.22
- VARIANT DESCRIPTOR: "Q94S"
  QUANTITATIVE READOUT: 0.266
- VARIANT DESCRIPTOR: "D297F"
  QUANTITATIVE READOUT: 0.8
- VARIANT DESCRIPTOR: "K159A"
  QUANTITATIVE READOUT: 0.394
- VARIANT DESCRIPTOR: "K222A"
  QUANTITATIVE READOUT: 0.955
- VARIANT DESCRIPTOR: "D103R"
  QUANTITATIVE READOUT: 0.339
- VARIANT DESCRIPTOR: "W65F"
  QUANTITATIVE READOUT: 0.122
- VARIANT DESCRIPTOR: "E207Y"
  QUANTITATIVE READOUT: 0.0192
- VARIANT DESCRIPTOR: "T391Q"
  QUANTITATIVE READOUT: 0.725
- VARIANT DESCRIPTOR: "P398L"
  QUANTITATIVE READOUT: 1.5
- VARIANT DESCRIPTOR: "C310S"
  QUANTITATIVE READOUT: 0.768
- VARIANT DESCRIPTOR: "K395N"
  QUANTITATIVE READOUT: 0.081
